Where do the numbers come from? From patent US20220411362A1.

Test method notes: Pharmacokinetic study, intravenous bolus injection in rats
Type: in vivo
Experimental setup: Sprague Dawley, plasma, rat, dose 0.1 mg/kg, 0.5 hour post dose, read-out: Concentration in Rat Plasma after Bolus Injection, Mean
Measured attribute: concentration at 0.5 hour (ng/mL)
Give bare numbers, in ng/mL.

Request: Which measured concentration at 0.5 hour value corresponds to `CC1=C[C@H]2[C@@]3(O)[C@H](C)C[C@]4(OC(=O)[C@@H](N)CC5CCCCC5)[C@H]([C@@H]3C=C(CO)C[C@]2(O)C1=O)C4(C)C` ?
Result: 19.4

---

Assay system: C1b domain of human PKCθ (Homo sapiens)
Construct: Genes encoding C1b domains of human PKCα, δ, ε, θ, and PKD1 (PKCμ) were synthesized; made in house; host or cells: E. coli BL21(DE3)
Sequence (Q04759 231-281 limits assumed): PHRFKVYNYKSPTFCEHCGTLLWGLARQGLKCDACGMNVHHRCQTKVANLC
Test method notes: Competitive 3H-PDBu binding to C1b domain of PKCθ
Experimental setup: C1b domain of human PKCθ, 3H-PDBu competition; read-out: Ki PKCθ
pKi: −log10 of the molar value.
Measured attribute: pKi

Examples from the recorded data:
compound="CC1=C[C@H]2[C@@]3(O)[C@H](C)C[C@]4(OC(=O)[C@@H](N)Cc5ccccc5)[C@H]([C@@H]3C=C(CO)C[C@]2(O)C1=O)C4(C)C [Compound K101-C1303]" result="7.22 to 7.52"
compound="CCCCCCCCCCCCCC(=O)O[C@@H]1[C@@H](C)[C@@]2(O)[C@@H](C=C(CO)C[C@]3(O)C(=O)C(C)=C[C@@H]23)[C@@H]2C(C)(C)[C@]12OC(C)=O [Compound K103, 12-O-Tetradecanoylphorbol-13-acetate, reference compound]" result="> 8.30"

Request: Can you look up the measured pKi of CC1=C[C@H]2[C@@]3(O)[C@H](C)C[C@]4(OC(=O)Cc5ccccc5)[C@H]([C@@H]3C=C(CO)C[C@]2(O)C1=O)C4(C)C [Compound K101-C1304] for me?
Result: 8.00 to 8.30

---

Test method notes: Pharmacokinetic study, intravenous bolus injection in rats
Assay type: in vivo
Experimental setup: Sprague Dawley, plasma, rat, dose 0.2 mg/kg, 24 hour post dose, read-out: Concentration in Rat Plasma after Bolus Injection, Mean
Measured attribute: concentration at 24 hour

Request: Tell me the measured concentration at 24 hour of CC1=C[C@H]2[C@@]3(O)[C@H](C)C[C@]4(OC(=O)[C@@H](N)CC5CCCCC5)[C@H]([C@@H]3C=C(CO)C[C@]2(O)C1=O)C4(C)C [Compound K101-C1327] , please.
Result: < 1 ng/mL

---

Assay system: C1b domain of human PKCδ (Homo sapiens)
Construct: Genes encoding C1b domains of human PKCα, δ, ε, θ, and PKD1 (PKCμ) were synthesized; made in house; host or cells: E. coli BL21(DE3)
Sequence (Q05655 230-280 limits assumed): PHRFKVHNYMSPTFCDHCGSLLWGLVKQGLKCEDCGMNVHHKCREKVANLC
Test method notes: Competitive 3H-PDBu binding to C1b domain of PKCδ
Experimental setup: 3H-PDBu competition, read-out: Ki PKCδ
Measured attribute: Ki

Look up Ki for the entries below, preserving their order.
1. CC1=C[C@H]2[C@@]3(O)[C@H](C)C[C@]4(OC(=O)[C@@H](N)C/C=C/c5ccccc5)[C@H]([C@@H]3C=C(CO)C[C@]2(O)C1=O)C4(C)C
2. CCCCCCCCCCCCCC(=O)O[C@@H]1[C@@H](C)[C@@]2(O)[C@@H](C=C(CO)C[C@]3(O)C(=O)C(C)=C[C@@H]23)[C@@H]2C(C)(C)[C@]12OC(C)=O [Compound K103, 12-O-Tetradecanoylphorbol-13-acetate, reference compound]
3. CC1=C[C@H]2[C@@]3(O)[C@H](C)C[C@]4(OC(=O)[C@@H](N)Cc5ccccc5)[C@H]([C@@H]3C=C(CO)C[C@]2(O)C1=O)C4(C)C

Result:
1. 5 to 10 nM
2. < 5 nM
3. 30 to 60 nM

Request: Query (compound): `CC1=C[C@H]2[C@@]3(O)[C@H](C)C[C@]4(OC(=O)Cc5ccccc5)[C@H]([C@@H]3C=C(CO)C[C@]2(O)C1=O)C4(C)C` ; field requested: Ki
Result: 5 to 10 nM

---

Test method notes: Pharmacokinetic study, intravenous bolus injection in rats
Type: in vivo
Experimental setup: Sprague Dawley, rat, plasma, iv, 0.1 mg/kg, rat plasma, 0.1 mg/kg, read-out: Vz
Measured attribute: Vd (L/kg)
One number for each entry, in L/kg.

Request: Quick check: Vd of CC1=C[C@H]2[C@@]3(O)[C@H](C)C[C@]4(OC(=O)[C@@H](N)CC5CCCCC5)[C@H]([C@@H]3C=C(CO)C[C@]2(O)C1=O)C4(C)C [Compound K101-C1327] ?
Result: 2.44

---

Test method notes: Pharmacokinetic study, intravenous bolus injection in rats
Type: in vivo
Experimental setup: Sprague Dawley, rat plasma, 0.2 mg/kg
Measured attribute: clearance (mL/min/kg)
Numbers only, in mL/min/kg.

Request: Suppose we examine the molecule CC1=C[C@H]2[C@@]3(O)[C@H](C)C[C@]4(OC(=O)[C@@H](N)CC5CCCCC5)[C@H]([C@@H]3C=C(CO)C[C@]2(O)C1=O)C4(C)C [Compound K101-C1327] ; what clearance value has been reported?
Result: 21.5

---

Test method notes: Pharmacokinetic study, intravenous bolus injection in rats
Format: in vivo
Experimental setup: Sprague Dawley, rat plasma, 0.1 mg/kg
Measured attribute: half-life (min)
One number for each entry, in min.

Request: I am curious: what half-life value has been reported for `CC1=C[C@H]2[C@@]3(O)[C@H](C)C[C@]4(OC(=O)[C@@H](N)CC5CCCCC5)[C@H]([C@@H]3C=C(CO)C[C@]2(O)C1=O)C4(C)C` ?
Result: 51.4

---

Assay system: C1b domain of human PKCα (Homo sapiens, UniProt P17252)
Construct: Genes encoding C1b domains of human PKCα, δ, ε, θ, and PKD1 (PKCμ) were synthesized; made in house; host or cells: E. coli BL21(DE3)
Test method notes: biochemical
Type: binding
Experimental setup: Ki PKCα, 3H-PDBu competition
Measured attribute: Ki

// solved cases for Ki follow
compound=CC1=C[C@H]2[C@@]3(O)[C@H](C)C[C@]4(OC(=O)CCC5CCCC5)[C@H]([C@@H]3C=C(CO)C[C@]2(O)C1=O)C4(C)C result="100 to 200 nM"
compound=CC1=C[C@H]2[C@@]3(O)[C@H](C)C[C@]4(OC(=O)CCc5ccc(C(F)(F)F)cc5)[C@H]([C@@H]3C=C(CO)C[C@]2(O)C1=O)C4(C)C result="30 to 60 nM"
compound=CC1=C[C@H]2[C@@]3(O)[C@H](C)C[C@]4(OC(=O)[C@@H](N)Cc5ccc(C(F)(F)F)cc5)[C@H]([C@@H]3C=C(CO)C[C@]2(O)C1=O)C4(C)C result="100 to 200 nM"
compound="CC1=C[C@H]2[C@@]3(O)[C@H](C)C[C@]4(OC(=O)[C@@H](N)CCc5ccccc5)[C@H]([C@@H]3C=C(CO)C[C@]2(O)C1=O)C4(C)C [Compound K101-C135602]" result="200 to 400 nM"

From here, focus on the item given below.
Request: Given CCCCCCCCCCCCCCCCCCC(CC(=O)O[C@@]12C[C@@H](C)[C@@]3(O)[C@@H](C=C(CO)C[C@]4(O)C(=O)C(C)=C[C@@H]34)[C@@H]1C2(C)C)C(=O)O (some centres unmarked) , state its recorded Ki.
Result: 4000 to 6000 nM

---

Assay system: C1b domain of human PKD1 (PKCμ) (Homo sapiens, UniProt Q15139)
Construct: Genes encoding C1b domains of human PKCα, δ, ε, θ, and PKD1 (PKCμ) were synthesized; made in house; host or cells: E. coli BL21(DE3)
Sequence (Q15139 270-320 limits assumed): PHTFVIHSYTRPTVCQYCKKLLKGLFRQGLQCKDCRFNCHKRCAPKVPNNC
Test method notes: biochemical
Assay type: binding
Measured attribute: Ki

Some entries whose results are on file:
smiles_entry=CC1=C[C@H]2[C@@]3(O)[C@H](C)C[C@]4(OC(=O)[C@@H](N)CC5CCCCC5)[C@H]([C@@H]3C=C(CO)C[C@]2(O)C1=O)C4(C)C result="< 5 nM"
smiles_entry=CC1=C[C@H]2[C@@]3(O)[C@H](C)C[C@]4(OC(=O)[C@H](N)Cc5ccccc5)[C@H]([C@@H]3C=C(CO)C[C@]2(O)C1=O)C4(C)C result="30 to 60 nM"
smiles_entry=CC1=C[C@H]2[C@@]3(O)[C@H](C)C[C@]4(OC(=O)[C@@H](N)CCC5CCCCC5)[C@H]([C@@H]3C=C(CO)C[C@]2(O)C1=O)C4(C)C result="< 5 nM"
smiles_entry=CC1=C[C@H]2[C@@]3(O)[C@H](C)C[C@]4(OC(=O)CC5CC6(C5)CN(C(=O)OC(C)(C)C)C6)[C@H]([C@@H]3C=C(CO)C[C@]2(O)C1=O)C4(C)C result="< 5 nM"

// moving on: another record for Ki
Request: Requested read-out: Ki. Entry: `CC1=C[C@H]2[C@@]3(O)[C@H](C)C[C@]4(OC(=O)[C@H](N)C(C)(C)c5ccc(C(F)(F)F)cc5)[C@H]([C@@H]3C=C(CO)C[C@]2(O)C1=O)C4(C)C`
Result: 5 to 10 nM
